Quick list: % (% gated × mean) per entry.
- System tested: T1, CD66c (CEACAM6) on CD66c-positive A549 non-small-cell lung cancer cells (UniProt P40199 35-320, limits assumed)
- T1 construct: whole, on cells; also called CD66c antigen; NCA-90
- T1 sequence (looked up): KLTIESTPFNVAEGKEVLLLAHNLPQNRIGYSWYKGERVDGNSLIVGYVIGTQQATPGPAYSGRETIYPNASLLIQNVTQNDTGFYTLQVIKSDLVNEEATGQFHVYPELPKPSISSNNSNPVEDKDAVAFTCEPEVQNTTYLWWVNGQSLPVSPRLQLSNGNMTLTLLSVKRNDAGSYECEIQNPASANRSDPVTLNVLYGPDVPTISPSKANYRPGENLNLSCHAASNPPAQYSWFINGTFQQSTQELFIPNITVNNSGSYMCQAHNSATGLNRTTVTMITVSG
- Measurement description: flow cytometry on A549 cells, relative to chimeric antibody
Measurement type: % (% gated × mean)

[[record]]
binder = "recombinant humanized anti-CD66c antibody Protein ID 3058 (Vk8 + VH11) (antibody, human IgG1, V domains shown, also called hu 3058; #86) VH: QVQLVQSGAEVKKPGASVKISCKASGYSFTDYTMHWVKQAPGQNLEWIGLINPFGGSTSYAQKFKGRVTMTRDTSTNTAYMELSRLRSDDTAVYYCVRGDPVRHYYALAYWGQGTLVTVSS VL: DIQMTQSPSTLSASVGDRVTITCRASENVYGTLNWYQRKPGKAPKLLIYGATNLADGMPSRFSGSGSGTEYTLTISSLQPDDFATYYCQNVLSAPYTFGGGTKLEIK"
measurement_type = "% (% gated × mean)"
result_value = "103%"

[[record]]
binder = "recombinant humanized anti-CD66c antibody Protein ID 3046 (Vk8 + VH7) (antibody, human IgG1, V domains shown, also called #74) VH: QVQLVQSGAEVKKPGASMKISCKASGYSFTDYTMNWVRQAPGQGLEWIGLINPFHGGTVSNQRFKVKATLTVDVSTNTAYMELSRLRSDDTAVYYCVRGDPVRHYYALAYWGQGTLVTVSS VL: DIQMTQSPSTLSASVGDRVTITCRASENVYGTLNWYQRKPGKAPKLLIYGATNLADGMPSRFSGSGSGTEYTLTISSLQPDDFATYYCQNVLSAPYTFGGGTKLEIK"
measurement_type = "% (% gated × mean)"
result_value = "82.2%"

[[record]]
binder = "anti-CD66c chimeric antibody 8F5 (antibody, human IgG1, V domains shown, also called chimeric 8F5 antibody; chi 8F5) VH: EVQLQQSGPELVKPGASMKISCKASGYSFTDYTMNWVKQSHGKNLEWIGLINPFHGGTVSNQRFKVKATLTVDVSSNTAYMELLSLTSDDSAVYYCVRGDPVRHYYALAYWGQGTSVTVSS VL: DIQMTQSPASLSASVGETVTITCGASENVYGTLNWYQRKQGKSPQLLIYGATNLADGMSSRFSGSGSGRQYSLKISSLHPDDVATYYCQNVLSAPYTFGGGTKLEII"
measurement_type = "% (% gated × mean)"
result_value = "100%"

[[record]]
binder = "recombinant humanized anti-CD66c antibody Protein ID 3019 (Vk7 + VH10) (antibody, human IgG1, V domains shown, also called hu 3019; #51) VH: QVQLVQSGAEVKKPGASVKVSCKASGYSFTDYTMNWVKQAPGQNLEWIGLINPFHGGTVSNQRFKVKATMTVDVSTNTAYMELSRLRSDDTAVYYCVRGDPVRHYYALAYWGQGTLVTVSS VL: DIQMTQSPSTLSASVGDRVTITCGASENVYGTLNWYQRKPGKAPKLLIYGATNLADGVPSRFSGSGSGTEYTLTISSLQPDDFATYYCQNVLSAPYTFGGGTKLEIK"
measurement_type = "% (% gated × mean)"
result_value = "86.9%"

